MEASURED_PARAMETER: melting point

Worked examples, 4 compounds total:
# COMPOUND, melting point
records = [
    ("COCC#Cc1ncn2c1CN(C)C(=O)c1cc(F)ccc1-2", "146 to 147 °C"),
    ("CCc1cc(N)ccc1N1C(=O)c2ccc(Cl)cc2C1=O", "118 to 120 °C"),
    ("c1ccc(CSc2ccccc2C2=NOCCO2)cc1", "73 to 77 °C"),
    ("CCn1c(C)c(C2(c3c(-c4ccc(OC)cc4)nc4sccn34)OC(=O)c3cccnc32)c2ccccc21 (stereo not given)", "115 to 118 °C"),
]

Provide melting point for all items below, preserving their order.
1. CN1CC(c2ccno2)CC2c3cccc4[nH]cc(c34)CC21 (stereo not given)
2. CCCCc1nc2c(N)nc3cc(Br)ccc3c2n1CC(C)C
3. NC(=NCC(F)(F)F)Nc1ccnc(COCCO)n1
4. COC(=O)C(C)(C)OCc1cc2cc(C(F)(F)F)ccc2n1S(=O)(=O)c1cc(C)cc(C)c1
5. CN=C1C2=C(C=CC1CN(C)c1ccc(C(=O)OC)cc1)C(C)(C)CCC2(C)C (stereo not given)
6. CCCCCCCCCc1ccc(O)c(C=NO)c1

Result:
1. 132 to 134 °C
2. 198 to 200 °C
3. 144 to 146 °C
4. 132 to 134 °C
5. 275 to 280 °C
6. 170 °C
